Experiment description: NCI Yeast Anticancer Drug Screen. Data for the mec2-1 strain (AID 157)
Test settings: S. cerevisiae mec2-1 strain, at 100.0 µM
This is part of a sample that, as a whole, favours compounds with a hit. Of some 79,000 tested, about 15% had one in any assay. Calls of active or inactive are those of the source. Cut-off read from the data, not from the text of the source: active = growth inhibition above about 70%; inactive = the rest.
Pick one and only one: 1 (yes) = active, 0 (no) = inactive

Q: Could you kindly confirm the outcome this assay logged for NNc1c(F)c(F)cc(F)c1F ?
A: 0 (no)

Q: What outcome does the record of this test show for c1ccc2c(c1)sc1cc3ccncc3cc12 ?
A: 1 (yes)

Q: Called result for CC(CC(C)(C)[N+](C)(C)C)[N+](C)(C)C (stereo unspecified)
A: 0 (no)

Q: Can you look up the reported call for COc1cc(C2SCC(=O)N2c2ccc(-c3ccc(-n4c(-c5ccccc5)nc5ccccc5c4=O)cc3)cc2)cc(OC)c1OC (stereo unspecified) for me?
A: 0 (no)

Q: Recorded call for O=C(NC(Nc1ccc(F)c(Cl)c1)(C(F)(F)F)C(F)(F)F)C(C(F)(F)F)C(F)(F)F ?
A: 1 (yes)

Q: Which outcome was assigned to O=C1C2C(C(=O)N1c1ccc(OCc3ccccc3)cc1)C1c3ccccc3C2C2CCCCN21 (stereo unspecified) in this test?
A: 1 (yes)

---

Kindly state growth inhibition for each of the entries shown.
Experiment description: NCI Yeast Anticancer Drug Screen. Data for the rad52 strain (AID 147);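 note: 0% = growth of vehicle-treated control cultures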
Test settings: S. cerevisiae rad52 mutant growth inhibition; at 1.2 µM; stronger effect = higher value
Compounds without any hit were thinned out: in the full panel of roughly 79,000, 15% have a hit.
Please state the figure in %; there is no need to write the unit.

Q: Given the compound [O-][n+]1c2ccc(O)cc2nc2ccc(Cl)cc21 , what is its reported growth inhibition?
A: 5

Q: Which growth inhibition value belongs to N#C/C(=C\c1cccc(OCc2ccccc2)c1)c1ccc([N+](=O)[O-])cc1 ?
A: -24

Q: # lookup: growth inhibition of CCC/C(Cl)=N\OC(=O)Nc1cccc(C(F)(F)F)c1
A: 9

Q: Quick one: growth inhibition of CCCCCCCCCCCCCCCCCCOCC(O)COP(=O)(O)OCC1OC(n2cc(F)c(=O)[nH]c2=O)CC1O (stereo not given) ?
A: 15

Q: Would you kindly share the measured growth inhibition for Cc1ccc(-n2cc(-c3ccc(Cl)cc3)c(C#N)c2N)cc1 ?
A: 0

---

Experiment description: NCI Yeast Anticancer Drug Screen. Data for the bub3 strain (AID 167)
Test settings: S. cerevisiae bub3 mutant strain, at 33.0 µM, stronger effect = higher value
The panel holds about 79,000 compounds, 15% with a hit somewhere; the sample as a whole holds those more often.
Each entry falls into one class according to its growth inhibition; the ranges are low interval (below 10%), middle interval (10% to below 60%), high interval (60% or more)

Q: Consider Cc1nc(-c2ccccc2)c(-c2ccccc2)s1 . To which growth inhibition class does it belong?
A: high interval

Q: Band of CCCCCCCCCCC(=O)Cl ?
A: low interval

Q: For this compound, which bin applies? Cn1c(N)nc(-c2ccc(Cl)cc2)c1SSc1c(-c2ccc(Cl)cc2)nc(N)n1C
A: high interval

Q: State the class of the compound shown: O=C1c2ccccc2C(=O)c2c(NC3CCCCC3)ccc(Nc3ccc(S(=O)(=O)O)cc3)c21
A: middle interval

Q: State the class of the compound shown: O=C(NCCCCNCCCNC(=O)c1cc(-c2ccccc2)nc2ccccc12)c1cc(-c2ccccc2)nc2ccccc12
A: middle interval

Q: Dear colleague, I would appreciate it if you could identify the bin for O=C1OC(=O)C2CCCC3CCCC1C32 (stereo unspecified) and reply at your convenience.
A: high interval

Q: Kindly state the category for this compound: C[S+](C)C1(c2ccccc2)C(=O)c2ccccc2C1=O
A: low interval

Q: # bin lookup: classify Oc1cccc2c(Cl)ccnc12 by its growth inhibition
A: high interval

Q: Class for COC1C=COC2(C)Oc3c(C)c(O)c4c(c3C2=O)/C(=N/C2CCC(O)OC2C)C=C(NC(=O)/C(C)=C\C(=O)C2CC2C(O)C(C)C(O)C(C)C(OC(C)=O)C1C)C4=O (stereo unspecified) ?
A: low interval

Q: In plain terms, what class is O=C(O)CNc1ccc(Cl)c(Cl)c1 ?
A: high interval

Q: Field: class (growth inhibition) — entry: CCOC(=O)c1cc([N+](=O)[O-])cc([N+](=O)[O-])c1Sc1ncnc2nc[nH]c12
A: high interval

Q: Class for OC1CCCc2c1cc1ccc3cccc4ccc2c1c34 (stereo unspecified) ?
A: high interval

Q: Band for NC(=O)NN=C(CS)CS ?
A: middle interval

Q: GET /class?item= OC(c1ccc(F)cc1)(c1ccc(F)cc1)C1CC1
A: low interval

Q: Field: class (growth inhibition) — entry: c1ccc2c(c1)NC(NC1Nc3ccccc3N1)N2
A: low interval

Q: Class label required: Oc1ccc2ccccc2c1C(c1ccc(Cl)cc1)c1c(O)ccc2ccccc12
A: middle interval

Q: Which class is correct for the following compound? COc1cc2ccc(/C=C\[N+](=O)[O-])cc2cc1OC
A: high interval

Q: Looking at Nc1ccccc1CC(O)C(=O)O (stereo unspecified) , which class would you pick?
A: high interval

Q: Which class does O=CC=C(c1ccccc1)c1ccccc1 fall in?
A: low interval

Q: Hello team, could you let me know which band the following compound falls into: N#CSc1ccc(S(N)(=O)=O)cc1
A: middle interval

Q: Category of c1ccc2c(c1)sc1nc3ccncc3nc12 , please.
A: middle interval

Q: Entry CC1(C)[C@@H]2CC[C@]1(C)[C@H](OC(=O)CSC#N)C2 belongs to which category?
A: high interval

Q: # bin lookup: classify Cc1ccc(Nc2nc3c(=O)n(C)c(=O)n(C)c3nc2Nc2ccc(C)cc2)cc1 by its growth inhibition
A: low interval

Q: Which bin should I file O=C1Nc2ccc(Cl)c(I)c2C1=O under?
A: low interval

Q: For this compound, which bin applies? COc1ccc(NC(=S)N/N=C(\c2ccccc2)c2ccccn2)cc1
A: low interval

Q: Using the reported growth inhibition, which band applies to CC(=O)OCC(=O)C1(O)CCC2C3CCC4CCCCC4(C)C3CCC21C (stereo unspecified) ?
A: middle interval

Q: Class for Cc1ccc2ccc(O)cc2c1 ?
A: middle interval

Q: Class label required: COc1cc(C2C3=C(COC3=O)Oc3cc4c(cc32)OCO4)ccc1O (stereo unspecified)
A: low interval

Q: Class for [N-]=[N+]=NC1=C(c2ccccn2)C(=O)c2cccc3cccc1c23 ?
A: middle interval

Q: Please report the category associated with O=C1C=CC(=O)N1c1ccc2c(c1)Cc1cc(NC(=O)C(F)(F)F)ccc1-2 , nothing else.
A: middle interval

Q: Sort CCCCCCCCCCCCCCCCCCOCC(O)COP(=O)(O)OCC1OC(n2cc(F)c(=O)[nH]c2=O)CC1O (stereo unspecified) into one of the categories.
A: high interval

Q: Form field 'band' for CC(C)(CN1CCCCC1)C(=O)CC(SCCS(=O)(=O)O)c1ccc(Br)cc1 (stereo unspecified)
A: middle interval

Q: Hey, which category is CCCCCCCC1(N=[N+]=[N-])C(=O)c2ccccc2N(C)C1=O (stereo unspecified) in, do you know?
A: middle interval

Q: Tag the class for CCC/C(Cl)=N\OC(=O)Nc1cccc(C(F)(F)F)c1
A: middle interval

Q: Any idea which band Cc1ccc2[nH]c3c(C)c4cc[n+](C)cc4c(C)c3c2c1 is in?
A: middle interval

Q: Which class is correct for the following compound? O=C(Nc1ccccc1)C(=O)C(C(=O)c1ccccc1)C(c1ccccc1)c1ccccc1 (stereo unspecified)
A: low interval

Q: Categorize the following entry: CCC#CCCCOC(=O)c1cc([N+](=O)[O-])cc([N+](=O)[O-])c1
A: middle interval

Q: Please classify: O=C1C(Nc2ccccc2)=C(Oc2ccccc2)C(=O)c2ccccc21
A: middle interval

Q: Into which bin does this compound go? CC(=O)OC1CCC2(C)C(=CCC3C4CCC5(OC6CC(C)CN(C(C)=O)C6C5C)C(C)=C4C(=O)C32)C1 (stereo unspecified)
A: high interval

Q: Category of C/C(=N\NC(=S)N1CCCCC1)c1cccc(C)n1 :
A: high interval

Q: Category of COc1ccc(C2c3cc4c(cc3OC(C)(O)C2C)OCO4)c(OC)c1 (stereo unspecified) :
A: low interval

Q: Class for CN(C)c1nc2sc3c(c2c(=O)o1)CCCC3 ?
A: middle interval

Q: Lab log: OC1CSCCCSCCSCCCSC1 — assign growth inhibition category
A: high interval

Q: Lab note: which band did CN(C)C[C@H]1CC[C@@H](CN(C)C)C1=O land in?
A: middle interval

Q: GET /class?item= CC(C)NC(=O)OCc1c(COC(=O)NC(C)C)c(-c2ccc(Cl)c(Cl)c2)n2c1CCC2
A: low interval

Measured values drawn from PubChem BioAssay (NCI) for this set.
